Assay: Quantitative High-Throughput drug screen in 47 multiple myeloma cell lines against the NCATS MIPE library collection: Delta47_JCRB cell viability assay (AID 1918925; also: potency is read from the fitted curve at half-maximal effect; nearly all actives have a fitted effect of over 45% in size)
Conditions: Delta47 myeloma viability, CellTiter-Glo ATP, 48 h; series mostly up to 45.8 µM
Records with an inconclusive call do not appear. Activity calls are given as the source filed them. Calls follow the shape of the dose curve; as a rule, active = well fitted cell-killing curve with a large enough effect; inconclusive = small, poorly fitted or top-dose-only effect, or effect the other way; inactive = no such curve, though single readings can be large or run the other way.
Listing: Potency of selected compounds

Exercise: Fill in the blank: the reported Potency of Cn1c2ccccc2c2c3c(c4c5ccccc5n(CCC#N)c4c21)CNC3=O is ____.
Solution: 1480 nM (active)

Exercise: Check CC(=O)Nc1nc(C)c(-c2ccc(Cl)c(S(=O)(=O)NCCO)c2)s1 too.
Solution: 662 nM (active)

Please look at the following compound next.
Exercise: Fill in the blank: the reported Potency of CN(C)CCCN=c1c2ccccc2n(C)c2[nH]c(=O)n(C)c(=O)c12 is ____.
Solution: 16600 nM (active)
